Assay: qHTS of pediatric cancer cell lines to identify multiple opportunities for drug repurposing: Primary screen for Rh41 cells (AID 1347108);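 note: luminescence drop marks cytotoxic hits; nearly all actives have a fitted effect of over 70% in size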
Conditions: Rh41 rhabdomyosarcoma viability, CellTiter-Glo luminescence, 48 h; series mostly up to 46 µM
Inconclusive results are not listed. Activity calls are given as the source filed them. Calls come from the whole dose curve; as a rule, active = well fitted cell-killing curve with a large enough effect; inconclusive = small, poorly fitted or top-dose-only effect; inactive = no such curve, though single readings can be large or run the other way.
Give one outcome, nothing more. List: active, inactive

>  <compound>
COP(=S)(OC)Oc1cc(Cl)c(Cl)cc1Cl

>  <category-label>
inactive

$$$$
>  <compound>
CCCCCCCCCC(=O)O[C@H]1CC[C@H]2[C@@H]3CCC4=CC(=O)CC[C@@H]4[C@H]3CC[C@]12C

>  <category-label>
inactive

$$$$

Task item: Per the records of this test, what outcome belongs to `CCN[C@@H](C)Cc1cccc(C(F)(F)F)c1` ?
Reply: inactive

Task item: Per the records of this test, what outcome belongs to `CCOP(=S)(OCC)Oc1ccc2c(C)c(Cl)c(=O)oc2c1` ?
Reply: inactive

Task item: Per the records of this test, what outcome belongs to `COc1ccc2c3c1O[C@H]1[C@H](O)CC[C@H]4[C@@H](C2)N(C)CC[C@@]341` ?
Reply: inactive

----------
Test: qHTS of pediatric cancer cell lines to identify multiple opportunities for drug repurposing: Primary screen for DAOY cells (AID 1347090);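 note: plate controls were DMSO for no effect and bortezomib for full effect; nearly all actives have a fitted effect of over 55% in size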
Details: DAOY medulloblastoma viability, CellTiter-Glo luminescence, 48 h; series mostly up to 46 µM
Results filed as inconclusive are left out. Activity calls are given as the source filed them. Calls follow the shape of the dose curve; as a rule, active = well fitted cell-killing curve with a large enough effect; inconclusive = small, poorly fitted or top-dose-only effect; inactive = flat fitted curve, though single readings scatter.
Give one outcome, nothing more. List: T for active, F for inactive

Below, 5 compounds whose answers are already recorded.
>  <compound>
C=CCC1(C(C)CC)C(=O)NC(=O)NC1=O (centres undefined)

>  <category-label>
F

$$$$
>  <compound>
O=C1OC(c2ccc(O)c(S(=O)(=O)O)c2)(c2ccc(O)c(S(=O)(=O)O)c2)c2c(Br)c(Br)c(Br)c(Br)c21

>  <category-label>
F

$$$$
>  <compound>
NC1=NC(=O)C(c2ccccc2)O1 (centres undefined)

>  <category-label>
F

$$$$
>  <compound>
C[C@]12CC[C@@H]3c4ccc(OC(=O)N(CCCl)CCCl)cc4CC[C@H]3[C@@H]1CC[C@@H]2OP(=O)(O)O

>  <category-label>
F

$$$$
>  <compound>
COP(=S)(OC)Oc1ccc(SC)c(C)c1

>  <category-label>
F

$$$$

Task item: Per the records of this test, what outcome belongs to `CCN(CC)C(=O)[C@@H]1C=C2c3cccc4[nH]cc(c34)C[C@H]2N(C)C1` ?
Reply: F

Task item: Per the records of this test, what outcome belongs to CC[N+]1(CC)CCC(OC(=O)C(O)(c2ccccc2)c2ccccc2)C1 (centres undefined) ?
Reply: F

Task item: Per the records of this test, what outcome belongs to `COc1ccc2c(c1OC)C(=O)O[C@H]2[C@@H]1c2cc3c(cc2CCN1C)OCO3` ?
Reply: F

Task item: Per the records of this test, what outcome belongs to `C[C@]12CC[C@H]3[C@@H](CCC4=CC(=O)CC[C@@H]43)[C@@H]1CC[C@@H]2OC(=O)CCc1ccco1` ?
Reply: F

Task item: Per the records of this test, what outcome belongs to CN1C(=O)NC(=O)C(C)(C2=CCCCC2)C1=O (centres undefined) ?
Reply: F

Task item: Per the records of this test, what outcome belongs to `CCOP(=S)(OCC)Oc1ccc2c(C)c(Cl)c(=O)oc2c1` ?
Reply: F

Task item: Per the records of this test, what outcome belongs to `CNC(C)(C)Cc1ccccc1` ?
Reply: F

Task item: Per the records of this test, what outcome belongs to `CC(C)c1cccc(C(C)C)c1O` ?
Reply: F

----------
Test: Primary qHTS for inhibitors of nuclear receptor binding SET domain protein 2 (NSD2) in an RCH-ACV wild type WT cells (2C) (AID 1645877); note: nearly all actives have a fitted effect of over 70% in size
Details: RCH-ACV (leukaemia line) NSD2 WT (2C) viability, CellTiter-Glo, 72 h; series mostly up to 44.9 µM
Results filed as inconclusive are left out. Active and inactive are the calls of the source. Calls come from the whole dose curve; as a rule, active = well fitted inhibition curve with a large enough effect; inconclusive = small, poorly fitted or top-dose-only effect; inactive = no such curve, though single readings can be large or run the other way.
Give one outcome, nothing more. List: TRUE for active, FALSE for inactive

>  <compound>
Cc1ncsc1CCCl

>  <category-label>
FALSE

$$$$
>  <compound>
CCN[C@@H](C)Cc1ccccc1

>  <category-label>
FALSE

$$$$
>  <compound>
C[C@]12CCC(=O)C=C1CC[C@@H]1[C@H]3CC[C@](C)(O)[C@@]3(C)CC[C@@H]12

>  <category-label>
TRUE

$$$$
>  <compound>
CC(=O)OCC1=C(C(=O)O)N2C(=O)[C@@H](N)[C@H]2SC1

>  <category-label>
FALSE

$$$$
>  <compound>
CNC(C)(C)Cc1ccccc1

>  <category-label>
FALSE

$$$$
>  <compound>
ClCCN1CCCC1

>  <category-label>
FALSE

$$$$
>  <compound>
CC(NC(C)(C)C)C(=O)c1cccc(Cl)c1 (stereo unspecified)

>  <category-label>
FALSE

$$$$
>  <compound>
COc1ccc2c3c1O[C@H]1[C@H](O)CC[C@H]4[C@@H](C2)N(C)CC[C@@]341

>  <category-label>
FALSE

$$$$

Task item: Per the records of this test, what outcome belongs to `CCCCCCC(=O)CCCCCC/C=C/C[C@@H](O)[C@H](O)[C@@](N)(CO)C(=O)O` ?
Reply: FALSE

Task item: Per the records of this test, what outcome belongs to `C=C(C)[C@H]1CN[C@H](C(=O)O)[C@H]1CC(=O)O` ?
Reply: FALSE

Task item: Per the records of this test, what outcome belongs to `COc1cc(OC)c(OC)cc1C=O` ?
Reply: FALSE

Task item: Per the records of this test, what outcome belongs to CC(C)(C)NCC(O)c1cc(Cl)c(N)c(C(F)(F)F)c1 (stereo unspecified) ?
Reply: FALSE

Task item: Per the records of this test, what outcome belongs to `C=CCN1C[C@H](C)N([C@H](c2ccc(C(=O)N(CC)CC)cc2)c2cccc(OC)c2)C[C@H]1C` ?
Reply: FALSE

Task item: Per the records of this test, what outcome belongs to `Oc1ccc(Cl)cc1` ?
Reply: FALSE

Task item: Per the records of this test, what outcome belongs to `Clc1ccccc1N1CCNCC1` ?
Reply: FALSE

Task item: Per the records of this test, what outcome belongs to CC(=O)C1CCOC1=O (stereo unspecified) ?
Reply: FALSE

Task item: Per the records of this test, what outcome belongs to `CCN[C@@H](C)Cc1cccc(C(F)(F)F)c1` ?
Reply: FALSE

Task item: Per the records of this test, what outcome belongs to `CCC(CC)(CNC(=O)CCCO)c1cccc(OC)c1` ?
Reply: FALSE

----------
Experiment: Quantitative High-Throughput drug screen in 47 multiple myeloma cell lines against the NCATS MIPE library collection: INA6_PLB cell viability assay (AID 1918965; note: nearly all actives have a fitted effect of over 55% in size; note: potency is the fitted concentration of half-maximal effect)
Conditions: INA6 myeloma viability, CellTiter-Glo ATP luminescence, 48 h; series mostly up to 45.8 µM
Records with an inconclusive call do not appear. Activity calls are given as the source filed them. Calls come from the whole dose curve; as a rule, active = well fitted cell-killing curve with a large enough effect; inconclusive = small, poorly fitted or top-dose-only effect, or effect the other way; inactive = no such curve, though single readings can be large or run the other way.
value-type: Potency

Example results:
>  <compound>
CC(NC(C)(C)C)C(=O)c1cccc(Cl)c1 (stereo unspecified)

>  <Potency>
inactive

$$$$
>  <compound>
O=C(O)CCCc1ccc(N(CCCl)CCCl)cc1

>  <Potency>
18.7 µM (active)

$$$$
>  <compound>
CC(C)C[C@H](CN)CC(=O)O

>  <Potency>
inactive

$$$$
>  <compound>
CN1C(=O)CCS(=O)(=O)C1c1ccc(Cl)cc1 (stereo unspecified)

>  <Potency>
inactive

$$$$
>  <compound>
COc1cc(OC)c(OC)cc1C=O

>  <Potency>
inactive

$$$$

We next turn to a different compound, shown below.
Task item: Supply measured Potency of CCC1(c2ccc(N)cc2)CCC(=O)NC1=O (stereo unspecified) in your reply.
Reply: inactive

----------
Tested on: AS120
Assay: qHTS profiling for inhibitors of Plasmodium falciparum proliferation (AID 504749);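 note: 0% = DMSO vehicle and full inhibition = artemisinin control; nearly all actives have a fitted effect of over 60% in size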
Details: P. falciparum in erythrocytes, SYBR Green DNA, 72 h; series mostly up to 28.7 µM
Records with an inconclusive call do not appear. Activity calls are given as the source filed them. Calls come from the whole dose curve; as a rule, active = well fitted inhibition curve with a large enough effect; inconclusive = small, poorly fitted or top-dose-only effect; inactive = flat fitted curve, though single readings scatter.
Give one outcome, nothing more. List: class 1 for active, class 0 for inactive

>  <compound>
O=C1Nc2ccc(Cl)cc2C(c2ccccc2)=NC1O (configuration not stated)

>  <category-label>
class 0

$$$$
>  <compound>
CN1C(=O)C(O)N=C(c2ccccc2)c2cc(Cl)ccc21 (configuration not stated)

>  <category-label>
class 0

$$$$
>  <compound>
COc1c2c(cc3c1OCO3)CCN(C)C2

>  <category-label>
class 0

$$$$
>  <compound>
CN1C(=O)CC(=O)N(c2ccccc2)c2cc(Cl)ccc21

>  <category-label>
class 0

$$$$
>  <compound>
CN1CCC(O)(c2ccc(F)cc2)C(C(=O)c2ccc(F)cc2)C1 (configuration not stated)

>  <category-label>
class 0

$$$$

Task item: Per the records of this test, what outcome belongs to `CNC(C)(C)Cc1ccccc1` ?
Reply: class 0

Task item: Per the records of this test, what outcome belongs to `CCC1(CC)C(=O)C=CNC1=O` ?
Reply: class 0

Task item: Per the records of this test, what outcome belongs to `C[C@]12CCC(=O)C=C1CC[C@@H]1[C@@H]2CC[C@]2(C)C(=O)CC[C@@H]12` ?
Reply: class 0

Task item: Per the records of this test, what outcome belongs to `Cc1ncsc1CCCl` ?
Reply: class 0

Task item: Per the records of this test, what outcome belongs to `O=C1OC(c2ccc(O)c(S(=O)(=O)O)c2)(c2ccc(O)c(S(=O)(=O)O)c2)c2c(Br)c(Br)c(Br)c(Br)c21` ?
Reply: class 0

Task item: Per the records of this test, what outcome belongs to `CC(C)c1cccc(C(C)C)c1O` ?
Reply: class 0

Task item: Per the records of this test, what outcome belongs to NC(=O)CS(=O)C(c1ccccc1)c1ccccc1 (configuration not stated) ?
Reply: class 0

Task item: Per the records of this test, what outcome belongs to `O=c1oc2ccccc2c(O)c1Cc1c(O)c2ccccc2oc1=O` ?
Reply: class 0

Task item: Per the records of this test, what outcome belongs to `Nc1ccc([As](=O)(O)O)cc1` ?
Reply: class 0

Task item: Per the records of this test, what outcome belongs to `Nc1ccccc1C(=O)O` ?
Reply: class 0
